Experimental system: UniProt Q13464
Sequence (Q13464 whole entry): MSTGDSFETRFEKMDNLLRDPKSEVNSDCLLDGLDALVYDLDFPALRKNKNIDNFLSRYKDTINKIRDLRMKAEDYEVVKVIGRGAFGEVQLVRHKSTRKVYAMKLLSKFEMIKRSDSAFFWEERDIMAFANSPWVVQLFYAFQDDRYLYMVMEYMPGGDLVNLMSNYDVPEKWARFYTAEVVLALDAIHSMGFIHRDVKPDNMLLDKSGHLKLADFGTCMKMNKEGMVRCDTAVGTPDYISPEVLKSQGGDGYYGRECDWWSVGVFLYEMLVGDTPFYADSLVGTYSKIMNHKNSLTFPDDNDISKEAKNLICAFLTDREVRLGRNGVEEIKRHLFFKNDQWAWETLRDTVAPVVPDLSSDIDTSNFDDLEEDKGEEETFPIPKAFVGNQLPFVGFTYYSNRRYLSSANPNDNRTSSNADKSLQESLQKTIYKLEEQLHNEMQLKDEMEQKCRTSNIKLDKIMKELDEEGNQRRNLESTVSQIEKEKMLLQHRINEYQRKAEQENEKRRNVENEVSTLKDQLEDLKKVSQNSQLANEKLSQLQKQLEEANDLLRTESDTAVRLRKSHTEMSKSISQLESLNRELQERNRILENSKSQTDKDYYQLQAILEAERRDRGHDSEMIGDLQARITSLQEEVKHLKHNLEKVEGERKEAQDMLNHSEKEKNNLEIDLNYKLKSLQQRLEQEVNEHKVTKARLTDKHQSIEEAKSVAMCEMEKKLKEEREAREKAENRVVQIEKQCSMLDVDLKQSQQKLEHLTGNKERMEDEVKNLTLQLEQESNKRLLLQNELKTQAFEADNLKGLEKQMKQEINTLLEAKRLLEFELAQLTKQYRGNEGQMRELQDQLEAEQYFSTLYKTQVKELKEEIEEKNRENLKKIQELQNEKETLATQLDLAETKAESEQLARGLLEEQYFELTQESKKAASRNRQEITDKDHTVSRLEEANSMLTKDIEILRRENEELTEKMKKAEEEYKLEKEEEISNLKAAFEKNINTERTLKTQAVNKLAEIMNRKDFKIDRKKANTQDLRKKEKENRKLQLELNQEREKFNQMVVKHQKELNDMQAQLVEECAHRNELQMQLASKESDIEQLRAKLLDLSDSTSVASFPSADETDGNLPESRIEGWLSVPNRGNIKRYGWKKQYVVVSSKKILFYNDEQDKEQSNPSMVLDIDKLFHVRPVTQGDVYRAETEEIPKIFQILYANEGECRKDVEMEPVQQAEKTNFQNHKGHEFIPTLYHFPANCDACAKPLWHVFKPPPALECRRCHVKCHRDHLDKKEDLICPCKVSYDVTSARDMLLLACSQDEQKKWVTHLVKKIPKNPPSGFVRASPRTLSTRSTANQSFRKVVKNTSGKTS
pIC50: −log10 of the molar value.
Recorded endpoint: pIC50

Problem: Give the measured pIC50 of Cc1cn([C@H](C)CC#N)c(=O)c2cc(Cn3nc(C(F)F)cc3Cl)nn12 .
Result: < 5.00

###

Experimental system: UniProtKB P21554
Protocol description: CNR1 Eurofins SafetyScan (Receptor)
pEC50: −log10 of the molar value.
Recorded endpoint: pEC50

Problem: Record lookup: for UniProtKB P21554, what pEC50 belongs to Cc1cn([C@H](C)CC#N)c(=O)c2cc(Cn3nc(C(F)F)cc3Cl)nn12 ?
Result: < 5.00

###

Experimental system: 5-hydroxytryptamine receptor 1D (Homo sapiens, UniProt P28221)
Sequence (P28221 whole entry): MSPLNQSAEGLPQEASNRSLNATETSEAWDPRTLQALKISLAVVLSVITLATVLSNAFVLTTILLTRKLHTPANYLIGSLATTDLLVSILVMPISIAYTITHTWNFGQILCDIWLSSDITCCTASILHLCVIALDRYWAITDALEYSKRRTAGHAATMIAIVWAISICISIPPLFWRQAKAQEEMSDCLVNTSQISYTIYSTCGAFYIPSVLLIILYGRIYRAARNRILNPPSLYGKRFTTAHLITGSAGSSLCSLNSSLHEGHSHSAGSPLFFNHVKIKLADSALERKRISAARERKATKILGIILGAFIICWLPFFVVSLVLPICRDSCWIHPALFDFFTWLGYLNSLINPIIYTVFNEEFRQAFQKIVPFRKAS
Recorded endpoint: Ki

Problem: Give 5-hydroxytryptamine receptor 1D (Homo sapiens, UniProt P28221) Ki for Cc1cn([C@H](C)CC#N)c(=O)c2cc(Cn3nc(C(F)F)cc3Cl)nn12
Result: > 10 µM

###

Experimental system: 5-hydroxytryptamine receptor 1A (Homo sapiens, UniProt P08908)
Sequence (P08908 whole entry): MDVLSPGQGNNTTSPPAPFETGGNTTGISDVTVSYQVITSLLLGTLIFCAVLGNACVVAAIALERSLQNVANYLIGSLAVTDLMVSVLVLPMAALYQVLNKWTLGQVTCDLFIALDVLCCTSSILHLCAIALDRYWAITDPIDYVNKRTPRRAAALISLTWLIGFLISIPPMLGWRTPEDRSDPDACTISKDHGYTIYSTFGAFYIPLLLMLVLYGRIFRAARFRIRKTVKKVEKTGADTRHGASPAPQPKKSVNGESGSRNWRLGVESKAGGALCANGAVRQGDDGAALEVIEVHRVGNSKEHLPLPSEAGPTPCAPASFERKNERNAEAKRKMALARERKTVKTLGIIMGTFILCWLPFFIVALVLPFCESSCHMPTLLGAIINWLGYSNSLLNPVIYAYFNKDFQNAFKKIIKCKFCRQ
pIC50: −log10 of the molar value.
Recorded endpoint: pIC50

Problem: Field: pIC50 (5-hydroxytryptamine receptor 1A (Homo sapiens, UniProt P08908)). Entry: Cc1cn([C@H](C)CC#N)c(=O)c2cc(Cn3nc(C(F)F)cc3Cl)nn12
Result: < 5.00

###

Experimental system: Beta-2 adrenergic receptor (Homo sapiens, UniProt P07550)
Sequence (P07550 whole entry): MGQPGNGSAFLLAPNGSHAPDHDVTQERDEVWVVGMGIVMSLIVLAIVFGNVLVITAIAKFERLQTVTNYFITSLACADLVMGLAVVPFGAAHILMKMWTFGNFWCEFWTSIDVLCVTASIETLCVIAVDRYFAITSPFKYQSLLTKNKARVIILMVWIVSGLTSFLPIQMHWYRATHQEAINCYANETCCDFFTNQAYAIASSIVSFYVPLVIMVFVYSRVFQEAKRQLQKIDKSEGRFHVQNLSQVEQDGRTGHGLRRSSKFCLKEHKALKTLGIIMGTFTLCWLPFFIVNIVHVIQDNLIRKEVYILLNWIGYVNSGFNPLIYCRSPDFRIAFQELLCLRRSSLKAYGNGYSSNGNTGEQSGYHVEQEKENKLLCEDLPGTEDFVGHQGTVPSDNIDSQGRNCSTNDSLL
Recorded endpoint: IC50

Problem: I have this molecule here, Cc1cn([C@H](C)CC#N)c(=O)c2cc(Cn3nc(C(F)F)cc3Cl)nn12 , and I need its recorded IC50.
Result: > 10 µM

###

Experimental system: UniProt P08908
Protocol description: HTR1A Eurofins SafetyScan (Receptor)
Recorded endpoint: EC50

Problem: Lookup: EC50 / UniProt P08908 / Cc1cn([C@H](C)CC#N)c(=O)c2cc(Cn3nc(C(F)F)cc3Cl)nn12
Result: > 10 µM

###

Experimental system: Alpha-2A adrenergic receptor (Homo sapiens, UniProt P08913)
Sequence (P08913 whole entry): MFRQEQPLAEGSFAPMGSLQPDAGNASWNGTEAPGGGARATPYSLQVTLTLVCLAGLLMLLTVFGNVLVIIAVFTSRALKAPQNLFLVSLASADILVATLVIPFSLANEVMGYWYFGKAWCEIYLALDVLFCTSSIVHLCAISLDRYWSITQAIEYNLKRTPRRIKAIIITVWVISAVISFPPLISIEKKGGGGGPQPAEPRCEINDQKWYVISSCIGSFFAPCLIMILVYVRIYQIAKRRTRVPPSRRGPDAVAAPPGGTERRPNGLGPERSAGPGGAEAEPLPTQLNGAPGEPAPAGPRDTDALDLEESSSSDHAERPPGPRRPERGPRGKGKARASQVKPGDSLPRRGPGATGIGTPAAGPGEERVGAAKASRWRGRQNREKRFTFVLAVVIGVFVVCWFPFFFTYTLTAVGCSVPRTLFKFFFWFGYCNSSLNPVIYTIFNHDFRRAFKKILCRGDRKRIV
Protocol description: ADRA2A Eurofins SafetyScan (Receptor)
Recorded endpoint: EC50

Problem: What value of measured EC50 is listed for Cc1cn([C@H](C)CC#N)c(=O)c2cc(Cn3nc(C(F)F)cc3Cl)nn12 ?
Result: > 10 µM

###

Experimental system: Androgen receptor (Homo sapiens)
Sequence (P10275 whole entry): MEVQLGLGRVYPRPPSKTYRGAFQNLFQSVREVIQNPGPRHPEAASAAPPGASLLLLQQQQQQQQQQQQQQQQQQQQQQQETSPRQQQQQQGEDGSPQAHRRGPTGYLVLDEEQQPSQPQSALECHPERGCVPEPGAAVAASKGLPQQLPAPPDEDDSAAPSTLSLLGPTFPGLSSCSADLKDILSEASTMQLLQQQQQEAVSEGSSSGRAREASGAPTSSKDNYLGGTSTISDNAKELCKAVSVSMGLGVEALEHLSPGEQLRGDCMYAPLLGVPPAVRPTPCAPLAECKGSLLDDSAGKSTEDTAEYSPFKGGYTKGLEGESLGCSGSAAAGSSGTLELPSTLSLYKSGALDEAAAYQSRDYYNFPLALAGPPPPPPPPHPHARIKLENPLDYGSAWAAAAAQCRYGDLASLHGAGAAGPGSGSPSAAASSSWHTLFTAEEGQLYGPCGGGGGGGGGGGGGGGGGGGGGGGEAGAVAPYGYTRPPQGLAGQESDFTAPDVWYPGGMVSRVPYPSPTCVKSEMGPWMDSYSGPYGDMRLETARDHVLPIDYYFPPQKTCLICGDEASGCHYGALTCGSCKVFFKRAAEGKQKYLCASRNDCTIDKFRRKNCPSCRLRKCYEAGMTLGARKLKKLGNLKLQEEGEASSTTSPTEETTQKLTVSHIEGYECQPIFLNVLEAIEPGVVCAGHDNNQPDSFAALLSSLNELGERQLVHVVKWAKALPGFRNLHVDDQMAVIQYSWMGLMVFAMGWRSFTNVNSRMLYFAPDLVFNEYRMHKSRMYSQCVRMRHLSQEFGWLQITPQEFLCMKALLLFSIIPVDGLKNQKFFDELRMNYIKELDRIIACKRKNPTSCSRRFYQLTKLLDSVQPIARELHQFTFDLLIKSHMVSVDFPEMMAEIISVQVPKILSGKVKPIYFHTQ
Recorded endpoint: IC50

Problem: Any idea what IC50 was measured for Cc1cn([C@H](C)CC#N)c(=O)c2cc(Cn3nc(C(F)F)cc3Cl)nn12 ?
Result: > 10 µM

###

Experimental system: Kappa-type opioid receptor (Homo sapiens, UniProt P41145)
Sequence (P41145 whole entry): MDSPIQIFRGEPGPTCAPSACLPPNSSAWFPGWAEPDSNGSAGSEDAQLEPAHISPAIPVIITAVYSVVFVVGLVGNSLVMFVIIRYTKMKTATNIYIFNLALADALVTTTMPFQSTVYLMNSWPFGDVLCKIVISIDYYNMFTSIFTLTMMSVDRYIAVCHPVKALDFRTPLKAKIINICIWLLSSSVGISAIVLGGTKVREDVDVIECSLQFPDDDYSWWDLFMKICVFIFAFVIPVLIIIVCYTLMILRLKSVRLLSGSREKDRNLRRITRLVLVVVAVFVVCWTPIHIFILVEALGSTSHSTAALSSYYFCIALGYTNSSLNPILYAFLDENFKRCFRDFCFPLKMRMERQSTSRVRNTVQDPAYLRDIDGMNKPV
pIC50: −log10 of the molar value.
Recorded endpoint: pIC50

Problem: Look up pIC50 for this molecule: Cc1cn([C@H](C)CC#N)c(=O)c2cc(Cn3nc(C(F)F)cc3Cl)nn12
Result: < 5.00

###

Experimental system: Delta-type opioid receptor (Homo sapiens, UniProt P41143)
Sequence (P41143 whole entry): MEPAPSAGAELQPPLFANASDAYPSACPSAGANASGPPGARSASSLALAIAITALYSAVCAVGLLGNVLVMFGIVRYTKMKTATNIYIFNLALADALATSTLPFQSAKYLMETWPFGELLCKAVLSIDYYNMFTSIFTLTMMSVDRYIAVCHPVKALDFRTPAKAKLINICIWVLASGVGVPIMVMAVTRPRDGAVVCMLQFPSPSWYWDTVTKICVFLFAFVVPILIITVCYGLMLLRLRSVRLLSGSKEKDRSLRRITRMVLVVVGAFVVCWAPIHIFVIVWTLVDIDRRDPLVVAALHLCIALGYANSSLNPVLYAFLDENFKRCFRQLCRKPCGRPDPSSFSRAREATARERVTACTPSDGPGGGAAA
Protocol description: OPRD1 Eurofins SafetyScan (Receptor)
Recorded endpoint: IC50

Problem: Under Delta-type opioid receptor (Homo sapiens, UniProt P41143): IC50 value of Cc1cn([C@H](C)CC#N)c(=O)c2cc(Cn3nc(C(F)F)cc3Cl)nn12 ?
Result: > 10 µM

###

Experimental system: Delta-type opioid receptor (Homo sapiens)
Protocol description: OPRD1 Eurofins SafetyScan (Receptor)
Recorded endpoint: EC50

Problem: Query EC50 on Delta-type opioid receptor (Homo sapiens) for Cc1cn([C@H](C)CC#N)c(=O)c2cc(Cn3nc(C(F)F)cc3Cl)nn12
Result: > 10 µM

###

Experimental system: D(2) dopamine receptor (Homo sapiens)
Sequence (P14416 whole entry): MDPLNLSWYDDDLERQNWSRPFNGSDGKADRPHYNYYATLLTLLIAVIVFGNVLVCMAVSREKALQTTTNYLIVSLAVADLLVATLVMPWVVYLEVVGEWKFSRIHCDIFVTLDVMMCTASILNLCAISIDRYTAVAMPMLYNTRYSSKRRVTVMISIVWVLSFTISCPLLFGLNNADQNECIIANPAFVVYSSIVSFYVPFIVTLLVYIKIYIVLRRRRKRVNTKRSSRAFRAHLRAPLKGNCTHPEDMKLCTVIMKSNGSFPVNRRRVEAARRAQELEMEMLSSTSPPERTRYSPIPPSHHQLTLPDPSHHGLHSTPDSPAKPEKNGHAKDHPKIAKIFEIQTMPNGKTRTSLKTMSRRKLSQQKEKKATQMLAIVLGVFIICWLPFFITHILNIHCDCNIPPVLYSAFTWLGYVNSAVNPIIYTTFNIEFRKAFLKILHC
Recorded endpoint: IC50

Problem: // lookup IC50 | system=D(2) dopamine receptor (Homo sapiens) | key= Cc1cn([C@H](C)CC#N)c(=O)c2cc(Cn3nc(C(F)F)cc3Cl)nn12
Result: > 10 µM

###

Experimental system: Histamine H1 receptor (Homo sapiens, UniProt P35367)
Sequence (P35367 whole entry): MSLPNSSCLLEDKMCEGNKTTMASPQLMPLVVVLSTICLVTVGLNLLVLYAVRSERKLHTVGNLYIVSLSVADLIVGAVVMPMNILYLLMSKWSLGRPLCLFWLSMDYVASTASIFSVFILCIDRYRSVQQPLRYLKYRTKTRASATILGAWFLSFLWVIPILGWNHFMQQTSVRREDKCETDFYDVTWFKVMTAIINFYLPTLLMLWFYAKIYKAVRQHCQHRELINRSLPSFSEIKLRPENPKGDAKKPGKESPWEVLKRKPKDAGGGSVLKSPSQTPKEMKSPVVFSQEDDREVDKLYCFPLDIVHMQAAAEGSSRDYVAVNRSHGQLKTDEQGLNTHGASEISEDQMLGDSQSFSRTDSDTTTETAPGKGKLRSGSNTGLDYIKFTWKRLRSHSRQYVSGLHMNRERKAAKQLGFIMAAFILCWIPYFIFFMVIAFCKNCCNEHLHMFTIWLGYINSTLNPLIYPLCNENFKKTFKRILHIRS
Protocol description: HRH1 Eurofins SafetyScan (Receptor)
pEC50: −log10 of the molar value.
Recorded endpoint: pEC50

Problem: # lookup: pEC50 of Cc1cn([C@H](C)CC#N)c(=O)c2cc(Cn3nc(C(F)F)cc3Cl)nn12
Result: < 5.00

###

Experimental system: 5-hydroxytryptamine receptor 2A (Homo sapiens)
Sequence (P28223 whole entry): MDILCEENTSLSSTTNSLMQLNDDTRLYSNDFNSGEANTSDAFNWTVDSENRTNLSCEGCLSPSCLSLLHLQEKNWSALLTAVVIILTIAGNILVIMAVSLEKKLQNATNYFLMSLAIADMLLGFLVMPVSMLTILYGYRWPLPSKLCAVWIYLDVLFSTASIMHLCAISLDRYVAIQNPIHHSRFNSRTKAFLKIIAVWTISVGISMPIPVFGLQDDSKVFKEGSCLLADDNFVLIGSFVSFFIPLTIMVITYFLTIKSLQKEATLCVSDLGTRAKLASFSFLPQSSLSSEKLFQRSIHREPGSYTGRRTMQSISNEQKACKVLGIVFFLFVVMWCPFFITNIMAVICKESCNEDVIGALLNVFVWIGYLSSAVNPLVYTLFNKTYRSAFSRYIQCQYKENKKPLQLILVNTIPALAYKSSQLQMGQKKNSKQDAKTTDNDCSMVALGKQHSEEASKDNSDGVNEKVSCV
Protocol description: HTR2A Eurofins SafetyScan (Receptor)
pEC50: −log10 of the molar value.
Recorded endpoint: pEC50

Problem: Suppose we examine the compound Cc1cn([C@H](C)CC#N)c(=O)c2cc(Cn3nc(C(F)F)cc3Cl)nn12 ; what pEC50 value has been reported?
Result: < 5.00

###

Experimental system: Cannabinoid receptor 1 (Homo sapiens)
Sequence (P21554 whole entry): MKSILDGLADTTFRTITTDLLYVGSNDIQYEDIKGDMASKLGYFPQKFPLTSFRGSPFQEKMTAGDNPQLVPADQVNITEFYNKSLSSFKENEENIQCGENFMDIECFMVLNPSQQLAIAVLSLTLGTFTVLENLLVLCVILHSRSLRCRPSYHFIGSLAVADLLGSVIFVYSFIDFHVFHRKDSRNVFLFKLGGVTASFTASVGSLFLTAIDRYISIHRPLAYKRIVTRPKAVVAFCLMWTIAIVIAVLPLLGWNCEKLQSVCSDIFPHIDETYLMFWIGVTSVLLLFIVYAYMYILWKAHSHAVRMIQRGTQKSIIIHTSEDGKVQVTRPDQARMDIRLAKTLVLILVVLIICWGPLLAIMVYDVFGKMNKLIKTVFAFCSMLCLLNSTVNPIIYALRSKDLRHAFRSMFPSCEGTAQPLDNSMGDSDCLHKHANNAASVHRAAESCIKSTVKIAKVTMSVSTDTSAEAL
Recorded endpoint: IC50

Problem: Observed IC50 on Cannabinoid receptor 1 (Homo sapiens) for Cc1cn([C@H](C)CC#N)c(=O)c2cc(Cn3nc(C(F)F)cc3Cl)nn12 , please.
Result: > 10 µM

###

Experimental system: Muscarinic acetylcholine receptor M2 (Homo sapiens)
Sequence (P08172 whole entry): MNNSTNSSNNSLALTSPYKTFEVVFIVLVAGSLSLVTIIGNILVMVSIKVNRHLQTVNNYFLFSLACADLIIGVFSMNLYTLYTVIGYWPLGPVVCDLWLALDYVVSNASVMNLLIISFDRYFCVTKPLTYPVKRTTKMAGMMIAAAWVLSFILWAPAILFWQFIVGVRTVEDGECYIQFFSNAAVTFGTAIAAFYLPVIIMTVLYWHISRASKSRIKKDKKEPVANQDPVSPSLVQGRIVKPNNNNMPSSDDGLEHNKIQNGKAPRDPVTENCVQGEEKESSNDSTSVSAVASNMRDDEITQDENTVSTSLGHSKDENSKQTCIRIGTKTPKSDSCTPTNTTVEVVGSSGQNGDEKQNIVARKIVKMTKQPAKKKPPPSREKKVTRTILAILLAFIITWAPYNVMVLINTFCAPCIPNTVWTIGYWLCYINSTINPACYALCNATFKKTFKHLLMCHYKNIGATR
pIC50: −log10 of the molar value.
Recorded endpoint: pIC50

Problem: If you can, please state the reported pIC50 value of Cc1cn([C@H](C)CC#N)c(=O)c2cc(Cn3nc(C(F)F)cc3Cl)nn12 .
Result: < 5.00
